The entries below are paired with their reported z-score.
TARGET_SYSTEM: Homeobox protein Hox-A13 (Mus musculus) (UniProt Q62424)
Sequence (Q62424 whole entry, looked up): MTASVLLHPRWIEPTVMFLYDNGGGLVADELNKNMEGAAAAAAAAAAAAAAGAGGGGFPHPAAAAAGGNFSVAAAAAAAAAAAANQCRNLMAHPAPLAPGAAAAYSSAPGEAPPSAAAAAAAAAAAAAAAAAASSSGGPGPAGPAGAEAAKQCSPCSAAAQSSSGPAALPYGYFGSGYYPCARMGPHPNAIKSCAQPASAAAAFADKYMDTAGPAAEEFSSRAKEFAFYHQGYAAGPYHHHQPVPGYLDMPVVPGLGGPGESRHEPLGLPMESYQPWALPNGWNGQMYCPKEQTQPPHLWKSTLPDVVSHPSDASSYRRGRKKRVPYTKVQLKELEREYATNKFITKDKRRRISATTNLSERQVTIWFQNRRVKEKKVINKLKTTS
PROTOCOL_SUMMARY: inhibitors of HoxA13-DNA binding, primary screen, biochemical, fluorescence polarization, labeled oligonucleotide (AID 1185)
SETUP_CONDITIONS: 15 min, higher = more signal, called active from +8 up or from −8 down
ASSAY_ENDPOINT: z-score

- MOLECULE: "O=C(O)[C@H]1C[C@H]2C(=O)N[C@@H](Cc3ccccc3)C(=O)N2[C@H]1c1cccc(OCCO)c1"
  ASSAY_ENDPOINT: "z-score"
  RECORDED_RESULT: -1.74
- MOLECULE: "C=CCC(OC(C)=O)[C@@H]1[C@@H](N(Cc2ccc(-c3cccc(C(F)(F)F)c3)o2)C(=O)Cc2ccc(OC)cc2)c2cc(OCCCO)ccc2N1C(=O)Cc1ccc2ccccc2c1 (some centres undefined)"
  ASSAY_ENDPOINT: "z-score"
  RECORDED_RESULT: -1.9
- MOLECULE: "CC(CO)N1C(=O)[C@@H]2[C@H]3C(=O)OCC=C[C@H]3OC23C=CCN(c2ccc(Cl)cc2)C(=O)[C@@H]13 (some centres undefined)"
  ASSAY_ENDPOINT: "z-score"
  RECORDED_RESULT: -3
- MOLECULE: "C=CCC(OC(C)=O)[C@@H]1[C@@H](N(Cc2cc3ccccc3o2)C(=O)c2ccc(-c3ccccc3)cc2)c2cc(OCCCO)ccc2N1C(=O)Cc1ccc(OC)cc1 (some centres undefined)"
  ASSAY_ENDPOINT: "z-score"
  RECORDED_RESULT: -1.8
